B1: CPEB3 Ribozyme (parent)
chain: UAACAGGGGGCCACAGCAGAAGCGUUCACGUCGCAGCCCCUGUCAGAUUCUGGUGAAUCUGCGAAUUCUGCUGUAUAUCUC

variants of: B1; test: self-cleavage, relative activity (ratio to wild type); higher = more cleavage; in vitro, sequencing
# if value of self-cleavage reaches 0.3, tag condition met; if it stays below, tag condition not met

| Mutation Name | Class Label |
| --- | --- |
| U51A U54C | condition met |
| A18G A20U | condition not met |
| G16A U69G | condition not met |
| G10A U43A | condition not met |
| U43A A77C | condition met |
| C29G A57G | condition met |
| U26C C37U | condition met |
| A3G U25C | condition met |
| G33A U54A | condition not met |
| A64U A75G | condition met |
| G7A G33U | condition not met |
| A64G C71U | condition met |
| U49C U74G | condition met |
| G8U U25C | condition not met |
| A57G U60G | condition not met |
| A20C C44U | condition not met |
| U43C U58C | condition not met |
| G9U A77U | condition not met |
| G63U A65U | condition met |
| G6U U66C | condition not met |
| C11G A64G | condition met |
| U41A A77G | condition met |
| A35C U43C | condition met |
| A15G A45C | condition met |
| G36A U69A | condition met |
| A28G G61A | condition met |
| C59U U69C | condition met |
| C17G U49C | condition not met |
| C14A A65G | condition met |
| G33A A56G | condition not met |
| G9A A13U | condition not met |
| A57C A64G | condition met |
| G6U C59U | condition not met |
| C40U A56G | condition met |
| G8A A57U | condition not met |
| G22A U78C | condition not met |
| G7A U43G | condition not met |
| A20G G46A | condition not met |
| G33C U80C | condition not met |
| U49C G61A | condition not met |
